Observed IC50 for PPARγ (Homo sapiens, UniProt P37231), reported per entry below.
Kindly report the value followed by its unit.

compound	measured_endpoint	observed_measurement
C/C=C/c1cc(/C=C(\CC(=O)CCCCC)C(C)=O)c(C(=O)OCC)cn1 [Monasnicotinate B]	IC50	11 µM

// query Recall the recorded IC50 for C/C=C/c1cc(/C=C(\CC(=O)CCCCCCC)C(C)=O)c(C(=O)OC)cn1 [Monasnicotinate C] with PPARγ (Homo sapiens, UniProt P37231) and state it.
Sequence (P37231 204-505 limits assumed): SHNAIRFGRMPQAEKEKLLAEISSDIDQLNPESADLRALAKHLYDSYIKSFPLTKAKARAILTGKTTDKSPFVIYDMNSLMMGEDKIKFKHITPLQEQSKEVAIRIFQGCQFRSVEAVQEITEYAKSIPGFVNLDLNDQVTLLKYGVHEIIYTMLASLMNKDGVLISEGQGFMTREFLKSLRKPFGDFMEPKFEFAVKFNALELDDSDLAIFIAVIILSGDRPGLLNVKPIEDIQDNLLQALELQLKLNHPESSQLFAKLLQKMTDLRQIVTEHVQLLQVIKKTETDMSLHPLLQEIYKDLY
// result 18.2 µM

// query Notebook entry, PPARγ (Homo sapiens, UniProt P37231) assay: IC50 of CCCCCC(=O)C/C(=C\c1cc(CCC)ncc1C(=O)OC)C(C)=O [Monasnicotinate D] = ?
// result 64.5 µM

// query Form entry - test system: PPARγ (Homo sapiens, UniProt P37231); read-out: IC50; compound: C/C=C/c1cc(/C=C(\CC(=O)CCCCC)C(C)=O)c(C(=O)OC)cn1 [Monasnicotinate A]
// result 42 µM

* * *

Below: a set of entries, each annotated with reported AdipoRed (%).
System: 3T3-L1 preadipocytes
Test: 3T3-L1 preadipocyte differentiation, insulin differentiation model
Assay type: cell-based
Details: sample concentration 2 μg/ml, control = 100
The reply should contain only the number, in %.

compound	tgt	AdipoRed (%)
CCCCCC(=O)C/C(=C\c1cc(CCC)ncc1C(=O)OC)C(C)=O [Monasnicotinate D]	3T3-L1 preadipocytes	247
C/C=C/c1cc(/C=C(\CC(=O)CCCCCCC)C(C)=O)c(C(=O)OC)cn1 [Monasnicotinate C]	3T3-L1 preadipocytes	209
C/C=C/c1cc(/C=C(\CC(=O)CCCCC)C(C)=O)c(C(=O)OCC)cn1 [Monasnicotinate B]	3T3-L1 preadipocytes	287

Consider the record given below.
// query Requested field: AdipoRed (%). Item: C/C=C/c1cc(/C=C(\CC(=O)CCCCC)C(C)=O)c(C(=O)OC)cn1 [Monasnicotinate A]
// result 159
